# credit: patent US20110028318A1

# System: Viola tricolor
# Assay Details: Post-emergence herbicidal activity, VIOTR
# Type: in vivo
# Condition Description: dosage rate 80 g/ha, scored visually after approx. 3 weeks vs untreated controls
In this section we review reported herbicidal activity VIOTR values for a set of compounds.
# output: bare number, implied unit %

Compound	Reported Metric	Experimental Result
CCC1CC(c2cccnc2S(=O)(=O)NC(=O)Nc2nc(C)cc(OC)n2)=NO1 (centres unmarked)	herbicidal activity VIOTR	80

Reading of herbicidal activity VIOTR for CCC1CC(c2cccnc2S(=O)(=O)NC(=O)Nc2nc(Cl)cc(OC)n2)=NO1 (centres unmarked) with Viola tricolor: 80

Reading of herbicidal activity VIOTR for COc1cc(Cl)nc(NC(=O)NS(=O)(=O)c2ncccc2C2=NOC(C)C2)n1 (centres unmarked) with Viola tricolor: 80

Reading of herbicidal activity VIOTR for Cc1cc(C)nc(NC(=O)NS(=O)(=O)c2ncccc2C2=NOCC2)n1 with Viola tricolor: 80

Reading of herbicidal activity VIOTR for COc1cc(OC)nc(NC(=O)NS(=O)(=O)c2ncccc2C2=NOC(C)(C)C2)n1 with Viola tricolor: 90

====

# Test system: Alopecurus myosuroides
# Assay Details: Pre-emergence herbicidal activity, ALOMY
# Format: in vivo
# Condition Description: 80 g/ha, WP formulation, scored visually after approximately 3 weeks vs untreated controls (100% = plants have died)
Reported Metric: herbicidal activity in percent, ALOMY (%)
# output: bare number, implied unit %

Recorded herbicidal activity in percent, ALOMY, per entry:
Molecule	Reported Metric	Experimental Result
COc1cc(OC)nc(NC(=O)NS(=O)(=O)c2ncccc2C2=NOC(C)C2)n1 (stereo not drawn) [Ia-11]	herbicidal activity in percent, ALOMY	90
COc1cc(Cl)nc(NC(=O)NS(=O)(=O)c2ncccc2C2=NOC(C)C2)n1 (stereo not drawn) [Ia-16]	herbicidal activity in percent, ALOMY	80
COc1cc(Cl)nc(NC(=O)NS(=O)(=O)c2ncccc2C2=NOCC2)n1 [Ia-1]	herbicidal activity in percent, ALOMY	90
COc1cc(C)nc(NC(=O)NS(=O)(=O)c2ncccc2C2=NOC(C)C2)n1 (stereo not drawn) [Ia-15]	herbicidal activity in percent, ALOMY	80

Let us move to another entry and its herbicidal activity in percent, ALOMY.
Form field herbicidal activity in percent, ALOMY, entry CCCC1CC(c2cccnc2S(=O)(=O)NC(=O)Nc2nc(C)cc(OC)n2)=NO1 (stereo not drawn) [Ia-17] : 90

====

In this section we review reported herbicidal activity VIOTR values for a set of compounds.
# Test system: Viola tricolor
# Assay Details: Post-emergence herbicidal activity, VIOTR
# Format: in vivo
# Condition Description: dosage rate 80 g/ha, scored visually after approx. 3 weeks vs untreated controls
# output: bare number, implied unit %

Compound	Units	Experimental Result
COc1cc(C)nc(NC(=O)NS(=O)(=O)c2ncccc2C2=NOC(C(C)C)C2)n1 (stereo not drawn)	%	80

Form field herbicidal activity VIOTR, entry COc1cc(OC)nc(NC(=O)NS(=O)(=O)c2ncccc2C2=NOCC2)n1 : 90

Form field herbicidal activity VIOTR, entry COc1cc(SC)nc(NC(=O)NS(=O)(=O)c2ncccc2C2=NOCC2)n1 : 80

Form field herbicidal activity VIOTR, entry COc1cc(OC)nc(NC(=O)NS(=O)(=O)c2ncccc2C2=NOC(C)C2)n1 (stereo not drawn) : 90

Form field herbicidal activity VIOTR, entry CCCC1CC(c2cccnc2S(=O)(=O)NC(=O)Nc2nc(OC)cc(OC)n2)=NO1 (stereo not drawn) : 80

Form field herbicidal activity VIOTR, entry COc1cc(Cl)nc(NC(=O)NS(=O)(=O)c2ncccc2C2=NOCC2)n1 : 80

Form field herbicidal activity VIOTR, entry COc1cc(OC)nc(NC(=O)NS(=O)(=O)c2ncccc2C2=NOC(C(C)C)C2)n1 (stereo not drawn) : 90

Form field herbicidal activity VIOTR, entry COc1cc(Cl)nc(NC(=O)NS(=O)(=O)c2ncccc2C2=NOC(C)(C)C2)n1 : 90

Form field herbicidal activity VIOTR, entry COc1cc(C)nc(NC(=O)NS(=O)(=O)c2ncccc2C2=NOC(C)C2)n1 (stereo not drawn) : 80
